# Test system: SKBR3 cells express WT PI3Ka
# assay.text: In vitro cell proliferation, SKBR3 cells (CellTiter-Glo)
# Type: cell-based
# conditions: Homo sapiens, SK-BR-3, 72 h, inhibition of proliferation
pEC50: −log10 of the molar value.
Reported pEC50 values for the following molecules.

Here are 6 molecules together with their reported answers.
[
  {
    "molecule": "C[C@@H](Nc1ccccc1C(=O)O)c1cc(F)cc2c(=O)n(C)c(C3C[C@@H]3C(F)(F)F)cc12 (single isomer, unassigned) [Example 451]",
    "pEC50": "< 4.82"
  },
  {
    "molecule": "Cc1cc(C(C)Nc2ccccc2C(=O)O)c2cc(N3C[C@@H]4CCCC[C@H]4C3)n(C)c(=O)c2c1 (single isomer, unassigned) [Example 100]",
    "pEC50": "< 4.82"
  },
  {
    "molecule": "Cc1ccc(N2CCN(c3cc4c([C@@H](C)Nc5ccccc5C(=O)O)cc(F)cc4c(=O)n3C)CC2)cn1 [Example 353]",
    "pEC50": "4.82 to 5.70"
  },
  {
    "molecule": "Cc1cc([C@@H](C)Nc2ccccc2C(=O)O)c2cc(N3CCN(c4cnc(C)s4)CC3)n(C)c(=O)c2c1 [Example 364]",
    "pEC50": "4.82 to 5.70"
  },
  {
    "molecule": "Cc1cc([C@@H](C)Nc2ccccc2C(=O)O)c2cc(N3CCN(c4cncnc4C)CC3)n(C)c(=O)c2c1 [Example 236]",
    "pEC50": "4.82 to 5.70"
  },
  {
    "molecule": "Cc1cc([C@@H](C)Nc2ccccc2C(=O)O)c2cc(N3CCn4c(nnc4C4CC4)C3)n(C)c(=O)c2c1 [Example 445]",
    "pEC50": "< 4.82"
  }
]

Problem: Return pEC50 measured with SKBR3 cells express WT PI3Ka given this molecule: Cc1cc(C(C)Nc2ccccc2C(=O)O)c2cc(N3CC4CCC(C4)C3)n(C)c(=O)c2c1 (stereo not drawn) [Example 85]
Solution: < 4.82

Problem: Return pEC50 measured with SKBR3 cells express WT PI3Ka given this molecule: Cc1cc([C@@H](C)Nc2cccc(F)c2C(=O)O)c2cc(N3CCN(c4ccc(C)nc4C)CC3)n(C)c(=O)c2c1 [Example 343]
Solution: 4.82 to 5.70

Problem: Return pEC50 measured with SKBR3 cells express WT PI3Ka given this molecule: Cc1cc([C@@H](C)Nc2cccc(F)c2C(=O)O)c2cc(C3CC3)n(C)c(=O)c2c1 [Example 320]
Solution: < 4.82

Problem: Return pEC50 measured with SKBR3 cells express WT PI3Ka given this molecule: Cc1cc([C@@H](C)Nc2ccccc2C(=O)O)c2cc(-c3cnc4c(c3)CCC4(F)F)n(C)c(=O)c2c1 [Example 240]
Solution: < 4.82

Problem: Return pEC50 measured with SKBR3 cells express WT PI3Ka given this molecule: Cc1cc(C(C)Nc2ccccc2C(=O)O)c2cc(N3CC4(CC(C(F)(F)F)C4)C3)n(C)c(=O)c2c1 (single isomer, unassigned) [Example 82]
Solution: < 4.82
